Molecular target: Melanocyte-stimulating hormone receptor (Homo sapiens)
Sequence (Q01726 whole entry, looked up): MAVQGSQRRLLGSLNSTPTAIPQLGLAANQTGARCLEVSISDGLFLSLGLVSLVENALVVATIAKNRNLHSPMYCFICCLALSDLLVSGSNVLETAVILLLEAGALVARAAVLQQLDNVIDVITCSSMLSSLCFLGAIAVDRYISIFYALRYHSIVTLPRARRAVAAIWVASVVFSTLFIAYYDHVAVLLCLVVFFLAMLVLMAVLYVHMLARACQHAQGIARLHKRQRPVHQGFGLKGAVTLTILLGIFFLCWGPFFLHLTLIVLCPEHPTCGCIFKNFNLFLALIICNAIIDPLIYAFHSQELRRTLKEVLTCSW
Assay: Agonist activity at human MC1R at 50 uM
Format: functional
Non-standard residues stand in square brackets, D forms with d. Residues, ends and D or L forms follow the SMILES beside them. ξ: configuration not given here. *: point of attachment. ξAtc(5-Br) = NC1(C(=O)O)CCc2c(Br)cccc2C1; Pentanoyl = CCCCC(=O)*
The entries below are paired with their reported Activity.
ASSAY_METRIC: Activity (%)

- CCCC(=O)NC1(C(=O)N[C@H](Cc2ccccc2)C(=O)N[C@@H](CCCN=C(N)N)C(=O)N[C@@H](Cc2c[nH]c3ccccc23)C(=O)Nc2ccccc2C(N)=O)CCc2c(Br)cccc2C1 (stereo partly drawn): 65
- CCCCC(=O)NC1(C(=O)N[C@H](Cc2ccccc2)C(=O)N[C@@H](CCCN=C(N)N)C(=O)N[C@@H](Cc2c[nH]c3ccccc23)C(=O)NCC(N)=O)CCc2c(Br)cccc2C1 (stereo partly drawn) (Pentanoyl-[ξAtc(5-Br)][dF]RWG-NH2): 50
- CCCC(=O)N[C@]1(C(=O)N[C@H](Cc2ccccc2)C(=O)N[C@@H](CCCN=C(N)N)C(=O)NC(Cc2ccc3ccccc3c2)C(=O)NCc2ccc(C(N)=O)cc2)CC[C@H](c2ccccc2)CC1 (stereo partly drawn): 15

====

Target: Melanocortin receptor 4 (Homo sapiens)
Sequence (P32245 whole entry): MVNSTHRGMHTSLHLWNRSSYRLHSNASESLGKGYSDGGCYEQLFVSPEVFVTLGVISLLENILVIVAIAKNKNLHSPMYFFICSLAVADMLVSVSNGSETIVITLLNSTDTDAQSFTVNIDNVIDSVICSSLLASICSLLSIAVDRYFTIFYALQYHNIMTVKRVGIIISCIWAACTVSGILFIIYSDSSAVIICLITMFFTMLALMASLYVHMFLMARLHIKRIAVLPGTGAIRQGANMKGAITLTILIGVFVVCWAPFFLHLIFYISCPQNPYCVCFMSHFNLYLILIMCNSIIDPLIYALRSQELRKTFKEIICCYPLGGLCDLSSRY
Assay: Agonist activity in HEK293 cells transfected with human MC4R by cAMP accumulation
Assay type: functional, cell-based
Flag rule - EC50 less than 20 nM flags y; the remaining entries get n.

• CCCC(=O)N[C@]1(C(=O)N[C@H](Cc2ccccc2)C(=O)N[C@@H](CCCN=C(N)N)C(=O)N[C@@H](Cc2ccc3ccccc3c2)C(=O)NCc2cccc(C(N)=O)c2)CC[C@H](c2ccccc2)CC1 = n
• N=C(N)NCCC[C@H](NC(=O)[C@@H](Cc1ccccc1)NC(=O)[C@]1(NC(=O)Cc2ccccc2)CC[C@@H](c2ccccc2)CC1)C(=O)N[C@@H](Cc1c[nH]c2ccccc12)C(=O)Nc1ccccc1C(N)=O = y
• CCCCNC(=O)N[C@]1(C(=O)N[C@H](Cc2ccccc2)C(=O)N[C@@H](CCCN=C(N)N)C(=O)N[C@@H](Cc2c[nH]c3ccccc23)C(=O)NCc2cccc(C(N)=O)c2)CC[C@H](c2ccccc2)CC1 = y
• CCCC(=O)N[C@]1(C(=O)N[C@H](Cc2ccccc2)C(=O)N[C@@H](CCCN=C(N)N)C(=O)N[C@@H](Cc2ccc3ccccc3c2)C(=O)NCC(N)=O)CC[C@H](c2ccccc2)CC1 = n
• CCCC(=O)N[C@]1(C(=O)N[C@H](Cc2ccccc2)C(=O)N[C@@H](CCCN=C(N)N)C(=O)N[C@@H](Cc2c[nH]c3ccccc23)C(=O)N[C@@H](C)C(N)=O)CC[C@H](c2ccccc2)CC1 = y
• CCCCNC(=O)N[C@]1(C(=O)N[C@H](Cc2ccccc2)C(=O)N[C@@H](CCCN=C(N)N)C(=O)N[C@@H](Cc2c[nH]c3ccccc23)C(=O)NCC(N)=O)CC[C@H](c2ccccc2)CC1 = y
• CCCCNC(=O)NC1(C(=O)N[C@H](Cc2ccccc2)C(=O)N[C@@H](CCCN=C(N)N)C(=O)N[C@@H](Cc2c[nH]c3ccccc23)C(=O)Nc2ccccc2C(N)=O)CCc2c(Br)cccc2C1 (stereo not given in full) = y
• CCCCNC(=O)N[C@]1(C(=O)N[C@H](Cc2ccccc2)C(=O)N[C@@H](CCCN=C(N)N)C(=O)N[C@@H](Cc2c[nH]c3ccccc23)C(=O)Nc2ccccc2C(N)=O)CC[C@H](c2ccccc2)CC1 = y
• NC(=O)CNC(=O)[C@H](Cc1c[nH]c2ccccc12)NC(=O)[C@H](CCCN=C(N)N)NC(=O)[C@@H](Cc1ccccc1)NC(=O)[C@]1(NC(=O)Cc2ccccc2)CC[C@@H](c2ccccc2)CC1 = y
• N=C(N)NCCC[C@H](NC(=O)[C@@H](Cc1ccccc1)NC(=O)[C@]1(NC(=O)Cc2ccccc2)CC[C@@H](c2ccccc2)CC1)C(=O)N[C@@H](Cc1c[nH]c2ccccc12)C(=O)NCc1cccc(C(N)=O)c1 = y
• CCCC(=O)N[C@]1(C(=O)N[C@H](Cc2ccccc2)C(=O)N[C@@H](CCCN=C(N)N)C(=O)N[C@@H](Cc2c[nH]c3ccccc23)C(=O)NCCC(N)=O)CC[C@H](c2ccccc2)CC1 = y
• C[C@H](NC(=O)[C@H](Cc1c[nH]c2ccccc12)NC(=O)[C@H](CCCN=C(N)N)NC(=O)[C@@H](Cc1ccccc1)NC(=O)[C@]1(NC(=O)Cc2ccccc2)CC[C@@H](c2ccccc2)CC1)C(N)=O = y
• CCCCC(=O)NC1(C(=O)N[C@H](Cc2ccccc2)C(=O)N[C@@H](CCCN=C(N)N)C(=O)N[C@@H](Cc2ccc3ccccc3c2)C(=O)NCC(N)=O)CCc2c(Br)cccc2C1 (stereo not given in full) = n
• CCCCC(=O)N[C@]1(C(=O)N[C@H](Cc2ccccc2)C(=O)N[C@@H](CCCN=C(N)N)C(=O)N[C@@H](Cc2ccc3ccccc3c2)C(=O)NCC(N)=O)CC[C@H](c2ccccc2)CC1 = n
• CCCC(=O)N[C@]1(C(=O)N[C@H](Cc2ccccc2)C(=O)N[C@@H](CCCN=C(N)N)C(=O)N[C@@H](Cc2c[nH]c3ccccc23)C(=O)Nc2ccccc2C(N)=O)CC[C@H](c2ccccc2)CC1 = y
• CCCC(=O)N[C@]1(C(=O)N[C@H](Cc2ccccc2)C(=O)N[C@@H](CCCN=C(N)N)C(=O)N[C@@H](Cc2ccc3ccccc3c2)C(=O)Nc2ccccc2C(N)=O)CC[C@H](c2ccccc2)CC1 = n
• N=C(N)NCCC[C@H](NC(=O)[C@@H](Cc1ccccc1)NC(=O)C1(NC(=O)Cc2ccccc2)CCc2c(Br)cccc2C1)C(=O)N[C@@H](Cc1c[nH]c2ccccc12)C(=O)Nc1ccccc1C(N)=O (stereo not given in full) = y
• CCCC(=O)NC1(C(=O)N[C@H](Cc2ccccc2)C(=O)N[C@@H](CCCN=C(N)N)C(=O)N[C@@H](Cc2ccc3ccccc3c2)C(=O)Nc2ccccc2C(N)=O)CCc2c(Br)cccc2C1 (stereo not given in full) = n
• CCCC(=O)N[C@]1(C(=O)N[C@H](Cc2ccccc2)C(=O)N[C@@H](CCCN=C(N)N)C(=O)N[C@@H](Cc2ccc3ccccc3c2)C(=O)NCc2ccc(C(N)=O)cc2)CC[C@H](c2ccccc2)CC1 = n
• CCCC(=O)N[C@]1(C(=O)N[C@H](Cc2ccccc2)C(=O)N[C@@H](CCCN=C(N)N)C(=O)N[C@@H](Cc2c[nH]c3ccccc23)C(=O)NCc2ccc(C(N)=O)cc2)CC[C@H](c2ccccc2)CC1 = y

====

Biological target: Melanocortin receptor 4 (Homo sapiens)
Experiment: Agonist activity in HEK293 cells transfected with human MC4R by cAMP accumulation
Type: functional, cell-based
pEC50: −log10 of the molar value.
ASSAY_METRIC: pEC50

- CCCC(=O)N[C@]1(C(=O)N[C@H](Cc2ccccc2)C(=O)N[C@@H](CCCN=C(N)N)C(=O)N[C@@H](Cc2ccc3ccccc3c2)C(=O)NCCC(N)=O)CC[C@H](c2ccccc2)CC1: 7.05
- CCCCNC(=O)N[C@]1(C(=O)N[C@H](Cc2ccccc2)C(=O)N[C@@H](CCCN=C(N)N)C(=O)N[C@@H](Cc2c[nH]c3ccccc23)C(=O)NCCC(N)=O)CC[C@H](c2ccccc2)CC1: 8.70
- N=C(N)NCCC[C@H](NC(=O)[C@@H](Cc1ccccc1)NC(=O)[C@]1(NC(=O)Cc2ccccc2)CC[C@@H](c2ccccc2)CC1)C(=O)N[C@@H](Cc1c[nH]c2ccccc12)C(=O)NCc1ccc(C(N)=O)cc1: 9.00
- NC(=O)CCNC(=O)[C@H](Cc1c[nH]c2ccccc12)NC(=O)[C@H](CCCN=C(N)N)NC(=O)[C@@H](Cc1ccccc1)NC(=O)[C@]1(NC(=O)Cc2ccccc2)CC[C@@H](c2ccccc2)CC1: 8.30
- CCCCNC(=O)N[C@]1(C(=O)N[C@H](Cc2ccccc2)C(=O)N[C@@H](CCCN=C(N)N)C(=O)N[C@@H](Cc2c[nH]c3ccccc23)C(=O)N[C@@H](C)C(N)=O)CC[C@H](c2ccccc2)CC1: 8.70
- CCCC(=O)NC1(C(=O)N[C@H](Cc2ccccc2)C(=O)N[C@@H](CCCN=C(N)N)C(=O)N[C@@H](Cc2c[nH]c3ccccc23)C(=O)Nc2ccccc2C(N)=O)CCc2c(Br)cccc2C1 (some centres not stated): 7.82
- CCCC(=O)N[C@]1(C(=O)N[C@H](Cc2ccccc2)C(=O)N[C@@H](CCCN=C(N)N)C(=O)N[C@@H](Cc2c[nH]c3ccccc23)C(=O)NCc2cccc(C(N)=O)c2)CC[C@H](c2ccccc2)CC1: 8.70

====

Molecular target: Melanocyte-stimulating hormone receptor (Homo sapiens)
Assay: Agonist activity at human MC1R at 10 uM
Assay type: functional
The entries below are paired with their reported Activity.
ASSAY_METRIC: Activity

• CCCC(=O)N[C@]1(C(=O)N[C@H](Cc2ccccc2)C(=O)N[C@@H](CCCN=C(N)N)C(=O)N[C@@H](Cc2c[nH]c3ccccc23)C(=O)Nc2ccccc2C(N)=O)CC[C@H](c2ccccc2)CC1 = 60%
• CCCC(=O)N[C@]1(C(=O)N[C@H](Cc2ccccc2)C(=O)N[C@@H](CCCN=C(N)N)C(=O)NC(Cc2ccc3ccccc3c2)C(=O)Nc2ccccc2C(N)=O)CC[C@H](c2ccccc2)CC1 (stereo partly drawn) = 50%
• CCCC(=O)N[C@]1(C(=O)N[C@H](Cc2ccccc2)C(=O)N[C@@H](CCCN=C(N)N)C(=O)NC(Cc2ccc3ccccc3c2)C(=O)NCCC(N)=O)CC[C@H](c2ccccc2)CC1 (stereo partly drawn) = 25%
• CCCCNC(=O)N[C@]1(C(=O)N[C@H](Cc2ccccc2)C(=O)N[C@@H](CCCN=C(N)N)C(=O)N[C@@H](Cc2c[nH]c3ccccc23)C(=O)Nc2ccccc2C(N)=O)CC[C@H](c2ccccc2)CC1 = 75%
• CCCCNC(=O)N[C@]1(C(=O)N[C@H](Cc2ccccc2)C(=O)N[C@@H](CCCN=C(N)N)C(=O)N[C@@H](Cc2c[nH]c3ccccc23)C(=O)NCC(N)=O)CC[C@H](c2ccccc2)CC1 = 55%
• CCCC(=O)N[C@]1(C(=O)N[C@H](Cc2ccccc2)C(=O)N[C@@H](CCCN=C(N)N)C(=O)NC(Cc2ccc3ccccc3c2)C(=O)N[C@@H](C)C(N)=O)CC[C@H](c2ccccc2)CC1 (stereo partly drawn) = 25%
• CCCCNC(=O)N[C@]1(C(=O)N[C@H](Cc2ccccc2)C(=O)N[C@@H](CCCN=C(N)N)C(=O)N[C@@H](Cc2c[nH]c3ccccc23)C(=O)NCc2cccc(C(N)=O)c2)CC[C@H](c2ccccc2)CC1 = 60%
• NC(=O)CCNC(=O)[C@H](Cc1c[nH]c2ccccc12)NC(=O)[C@H](CCCN=C(N)N)NC(=O)[C@@H](Cc1ccccc1)NC(=O)[C@]1(NC(=O)Cc2ccccc2)CC[C@@H](c2ccccc2)CC1 = 45%
